Test system: CCRIS mutagenicity, Ames/micronucleus/aberration tests
Assay: CCRIS mutagenicity studies
Details: Test System: AMES SALMONELLA TYPHIMURIUM; Strain/Indicator: TA1535; Metabolic Activation: RAT, LIVER, S-9, AROCLOR 1254; Method: STANDARD PLATE
Activity calls are given as the source filed them. No rule for the calls is given here.
Valid outcomes are listed here; reply with one: true (1) for active, false (0) for inactive

Please indicate how the test categorized C/C=C\c1cc(OC)c(OC)cc1OC .
false (0)

Call for entry CCN(CC)c1cc(NC(C)=O)c(N=Nc2ccc([N+](=O)[O-])cc2)cc1OC :
true (1)

Record lookup: outcome of this test for O=C(O)c1cc(Cl)cc2cccnc12 ?
false (0)

Would you mind telling me which call this test gave C/C=C/C=C/C=O ?
false (0)

How did this test come out for ClC(Cl)Cl ?
true (1)

Identify the outcome logged in this assay for the molecule shown: N#CC(Br)Br
false (0)

Kindly provide the recorded test outcome for the following molecule: Cc1c(C(=O)O)c(O)cc2c1C(=O)c1c(O)c([C@@H]3O[C@H](CO)[C@@H](O)[C@H](O)[C@H]3O)c(O)c(O)c1C2=O
false (0)

I'd appreciate the recorded outcome for O=c1[nH]cnc2c1ncn2[C@H]1CC[C@@H](CO)O1 from this test.
false (0)

Per the records of this test, what outcome belongs to O=C1C=CC(=O)CC(=O)C1 ?
false (0)

====

Test system: CCRIS mutagenicity, Ames/micronucleus/aberration tests
Experiment: CCRIS mutagenicity studies
Settings: Test System: AMES SALMONELLA TYPHIMURIUM; Strain/Indicator: TA1538; Metabolic Activation: HAMSTER, LIVER, S-9; Method: STANDARD PLATE
The source made the active and inactive calls. No rule for the calls is given here.
Can you answer with just one of these options? 1.0 (active), 0.0 (inactive)

These solved cases illustrate the format of a correct answer.
>>> label("Nc1c(S(=O)(=O)O)cc2cc(S(=O)(=O)O)ccc2c1N=Nc1ccc(-c2ccc(N=Nc3c(N)c(S(=O)(=O)O)cc4cc(S(=O)(=O)O)ccc34)c(Cl)c2)cc1Cl")
0.0
>>> label("Cc1cc(-c2ccc(N)c(C)c2)ccc1N")
1.0
>>> label("Nc1ccc(Cl)c(N)c1")
1.0

Next item in the queue.
Give the logged outcome of this assay for the following molecule: COc1ccc(N)cc1
0.0

====

Tested on: CCRIS mutagenicity, Ames/micronucleus/aberration tests
Experiment: CCRIS mutagenicity studies
Details: End Point: IN VITRO CHROMOSOMAL ABERRATIONS; Test System: CHINESE HAMSTER OVARY CELLS; Metabolic Activation: NONE
Calls of active or inactive are those of the source. The rule behind the calls is not given here.
Log the outcome using a class from Yes = active, No = inactive

Example cases with answers are listed next.
>>> label("C=CCN=C=S")
"Yes"
>>> label("OCCN(CCO)CCO")
"No"
>>> label("O=C([O-])c1cc(N=Nc2ccc(-c3ccc(N/N=c4/c(=O)cc/c(=N\\Nc5cc(S(=O)(=O)[O-])ccc5[O-])c4=O)cc3)cc2)ccc1[O-].[Cu+2].[Na+].[Na+]")
"No"
>>> label("CCCCC1C(=O)N(c2ccccc2)N(c2ccccc2)C1=O")
"No"
>>> label("COC(=O)C(c1ccccc1)C1CCCCN1 (configuration not stated)")
"No"
>>> label("O=C1NC(=O)C(c2ccccc2)(c2ccccc2)N1")
"No"
>>> label("N#Cc1c(Cl)c(Cl)c(Cl)c(C#N)c1Cl")
"Yes"
>>> label("CC(=O)NS(=O)(=O)c1ccc(N)cc1")
"No"
>>> label("COc1ccc(N)cc1")
"Yes"
>>> label("Cc1cc(-c2ccc(N)c(C)c2)ccc1N")
"Yes"

Could you check what this test reported for Brc1ccccc1 ?
No

Any idea what this test logged for CC1(C)C(=O)N(Cl)C(=O)N1Cl ?
No

====

Test system: CCRIS mutagenicity, Ames/micronucleus/aberration tests
Assay: CCRIS mutagenicity studies
Details: Test System: AMES SALMONELLA TYPHIMURIUM; Strain/Indicator: TA98(1,8-DNP6); Metabolic Activation: RAT, LIVER, S-9, AROCLOR 1254; Method: STANDARD PLATE
Calls of active or inactive are those of the source. The rule behind the calls is not given here.
valueKind: mutagenic call

>>> result("O=[N+]([O-])c1ccc2c(O)cc3cccc4ccc1c2c43")
"active; positive"
>>> result("Nc1ccc2ccc3cccc4ccc1c2c34")
"active; positive"
>>> result("O=[N+]([O-])c1ccc2ccc3c4c(cc5ccc1c2c53)CCC=C4")
"active; positive"

====

Test system: CCRIS mutagenicity, Ames/micronucleus/aberration tests
Assay: CCRIS mutagenicity studies
Settings: Test System: AMES SALMONELLA TYPHIMURIUM; Strain/Indicator: TA98(1,8-DNP6); Metabolic Activation: NONE; Method: STANDARD PLATE
Activity calls are given as the source filed them. The rule behind the calls is not given here.
A correct response names exactly one class from yes (1) for active, no (0) for inactive

Examples with answers:
>>> label("O=[N+]([O-])c1cc2c3c(ccc4cc([N+](=O)[O-])cc(c43)CC2)c1")
"yes (1)"
>>> label("Nc1ccc(-c2ccc(N)cc2[N+](=O)[O-])cc1")
"yes (1)"
>>> label("O=[N+]([O-])c1ccc2ccc3cccc([N+](=O)[O-])c3c2c1")
"yes (1)"
>>> label("CC(=O)OC(OC(C)=O)c1ccc([N+](=O)[O-])o1")
"yes (1)"
>>> label("O=[N+]([O-])c1ccc2c(CCO)c[nH]c2c1")
"yes (1)"

Called result for O=[N+]([O-])c1ccc(-c2ccccc2)cc1
yes (1)

Record request — test call for O=[N+]([O-])c1cc2ccc3cccc4ccc(c1)c2c34
yes (1)

====

System: CCRIS mutagenicity, Ames/micronucleus/aberration tests
Test: CCRIS mutagenicity studies
Conditions: Test System: AMES SALMONELLA TYPHIMURIUM; Strain/Indicator: TA98; Metabolic Activation: RAT, LIVER, S-9; Method: STANDARD PLATE
Active and inactive are the calls of the source. How the calls were made is not given here.
Your answer must be one of the following: YES for active, NO for inactive

>>> label("C/C=C/C=C/CCCCCCCO")
"NO"
>>> label("COCC(O)Cn1cc([N+](=O)[O-])nc1Cl (centres undefined)")
"YES"
>>> label("[O]=[Cr](=[O])([OH])[O][Cr](=[O])(=[O])[OH]")
"YES"
>>> label("Nc1cccc2c(N)cccc12")
"NO"

What did this assay record as the result for Cc1ccc(N=Nc2c(O)ccc3ccccc23)c(S(=O)(=O)O)c1 ?
NO

Recorded call for CC/C=C\C=C\CCCCCCOC(C)=O ?
NO

Would you mind telling me which call this test gave CN(C)c1ccc(C(=O)c2ccc(N(C)C)cc2)cc1 ?
NO

====

Test system: CCRIS mutagenicity, Ames/micronucleus/aberration tests
Assay: CCRIS mutagenicity studies
Details: Test System: AMES SALMONELLA TYPHIMURIUM; Strain/Indicator: TA98; Metabolic Activation: RAT, LIVER, S-9, AROCLOR 1254; Method: STANDARD PLATE
Activity calls are given as the source filed them. No rule for the calls is given here.
valueKind: mutagenic call

Completed entries (count: 5):
>>> result("Oc1c(Br)cc(Br)cc1Br")
"inactive; negative"
>>> result("O=C(O)/C=C/c1ccc([N+](=O)[O-])cc1")
"active; positive"
>>> result("Clc1cccc2cc3ccccc3cc12")
"inactive; negative"
>>> result("ClC(Cl)=C(Cl)c1cccc(Cl)c1Cl")
"inactive; negative"
>>> result("CC1=C(/C=C/C(C)=C/C=C/C(C)=C/C=C/C=C(C)/C=C/C=C(\\C)C=O)C(C)(C)CCC1")
"inactive; negative"

Any idea what mutagenic call was measured for O=[N+]([O-])C1=Cc2c3c1cccc3cc1ccc3ccccc3c21 ?
active; positive

Look up mutagenic call for this compound: Cc1ccc(NCCO)cc1O
inactive; negative

Requested field: mutagenic call. Item: CNC(=O)Oc1cc2ccccc2c2ccccc12
inactive; negative

Value lookup for mutagenic call; key = CC(C)(CO)[C@@H](O)C(=O)NCCCO
inactive; negative

Consider the compound COc1c(Cl)cc2c(c1OC)N(C)[C@@H]1N3C(=O)[C@@]4(C)SS[C@@]3(C(=O)N4C)[C@H](O)[C@]21O and give its measured mutagenic call.
inactive; negative

Tell me the measured mutagenic call of O=C(c1ccc(F)cc1)[C@@H]1O[C@@H]1c1ccccc1 , please.
inactive; negative

What value of mutagenic call has been reported for the following compound? Nc1ccc2ccccc2c1
inactive; negative

====

Tested on: CCRIS mutagenicity, Ames/micronucleus/aberration tests
Test: CCRIS mutagenicity studies
Settings: Test System: AMES SALMONELLA TYPHIMURIUM; Strain/Indicator: YG1024; Metabolic Activation: NONE; Method: PREINCUBATION
Active and inactive are the calls of the source. No rule for the calls is given here.
valueKind: mutagenic call

>>> result("CCN(CC)N=O")
"inactive; negative"
>>> result("Nc1ncnc2c1nc(-c1ccc([N+](=O)[O-])cc1)n2-c1ccc([N+](=O)[O-])cc1")
"active; positive"
>>> result("O=[N+]([O-])c1ccc(CNc2ncnc3c2ncn3[C@@H]2O[C@H](CO)[C@@H](O)[C@H]2O)cc1")
"active; positive"
>>> result("Nc1cccc(N)c1")
"inactive; negative"
